assaySystem: human 5-HT2C receptor (Homo sapiens, UniProt P28335, I156V/I160V/N158S)
Sequence (P28335 33-458 I156V/N158S/I160V limits assumed): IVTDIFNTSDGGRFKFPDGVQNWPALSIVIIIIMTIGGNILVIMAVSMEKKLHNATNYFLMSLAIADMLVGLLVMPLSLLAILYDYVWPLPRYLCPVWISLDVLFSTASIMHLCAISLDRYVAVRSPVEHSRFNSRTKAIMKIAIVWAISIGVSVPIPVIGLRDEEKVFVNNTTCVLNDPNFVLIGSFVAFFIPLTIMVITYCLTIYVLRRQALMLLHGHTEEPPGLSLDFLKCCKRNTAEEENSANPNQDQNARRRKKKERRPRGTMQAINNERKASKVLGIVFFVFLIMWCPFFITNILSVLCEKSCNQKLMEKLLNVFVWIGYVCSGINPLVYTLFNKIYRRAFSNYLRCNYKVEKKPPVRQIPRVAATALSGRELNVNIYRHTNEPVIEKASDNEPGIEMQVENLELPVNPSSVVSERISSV
protocolDescription: cell-based
# pEC50 listing for each entry below
The value called pEC50 is obtained by taking minus log10 of the concentration in mol/L.

Observe how each entry below is paired with its result.
CC1(C(=O)N2CCC(C(F)(F)F)CC2)CN(c2c3c(nc4ccnn24)CCNCC3)C1 | 5.08
O=C(NCCc1ccccc1)C1CN(c2c3c(nc4ccnn24)CCNCC3)C1 | 6.14
O=C(C1CN(c2c3c(nc4ccnn24)CCNCC3)C1)N1CCN(C2CCCC2)CC1 | 8.70

**Query** Retrieve pEC50 measured for `COc1cccc(N(C)C(=O)C2CN(c3c4c(nc5ccnn35)CCNCC4)C2)c1` and print it.
**Result** 6.22

**Query** Respond only with pEC50 recorded for O=C(NC1CCOC1)C1CN(c2c3c(nc4ccnn24)CCNCC3)C1 (stereo not shown)
**Result** 7.17

**Query** For the compound `Cc1ccc2c(c1)N(C(=O)C1CN(c3c4c(nc5ccnn35)CCNCC4)C1)CC2` , give its reported pEC50.
**Result** 7.02

**Query** # return recorded pEC50 for input `c1ccc(CN2CCN(c3c4c(nc5ccnn35)CCNCC4)CC2)cc1`
**Result** 6.97

**Query** Recall and state the measured pEC50 for O=C(C1CN(c2c3c(nc4ccnn24)CCNCC3)C1)N1CC2CCCC2C1 (stereo not shown) .
**Result** 7.01

Data provenance is patent US20120165304A1.
